Reported MIC, Staph. aureus values for the following compounds.
- Test system: Staphylococcus aureus IAM 1011
- ASSAY INFO: Antibacterial activity (MIC), agar plate, Staph. aureus
- Type: cell-based
- COND: Staph. aureus IAM 1011, Mueller-Hinton agar, 37° C., 18 to 24 hours; unit assumed
Expressed in µg/mL, but write only the number.

COMPOUND: CC1(C)S[C@@H]2[C@H](NC(=O)C(N=Cc3cc(Cl)ccc3O)c3ccccc3)C(=O)N2[C@H]1C(=O)O (stereo partly shown)
ASSAY SYSTEM: Staphylococcus aureus IAM 1011
EXPERIMENTAL ENDPOINT: MIC, Staph. aureus
DISPLAY UNIT: µg/mL
VALUE REPORTED: 0.1

COMPOUND: COCOC(=O)[C@@H]1N2C(=O)[C@@H](NC(=O)COc3ccccc3)[C@H]2SC1(C)C
ASSAY SYSTEM: Staphylococcus aureus IAM 1011
EXPERIMENTAL ENDPOINT: MIC, Staph. aureus
DISPLAY UNIT: µg/mL
VALUE REPORTED: 12.5

COMPOUND: CCOCOC(=O)[C@@H]1N2C(=O)[C@@H](NC(=O)COc3ccccc3)[C@H]2SC1(C)C
ASSAY SYSTEM: Staphylococcus aureus IAM 1011
EXPERIMENTAL ENDPOINT: MIC, Staph. aureus
DISPLAY UNIT: µg/mL
VALUE REPORTED: 12.5

What does the record list as MIC, Staph. aureus for CC1(C)S[C@@H]2[C@H](NC(=O)C(N=Cc3ccccc3O)c3ccccc3)C(=O)N2[C@H]1C(=O)O (stereo partly shown) ?
0.78

###

- Test system: Escherichia coli
- ASSAY INFO: Effect on intestinal bacterial colonies, E. coli count in feces
- Type: in vivo
- COND: female ICR mice, oral 500 mg/kg/day for two days, first day after administration; before administration 6.4
Reported Logarithmic value of the number of bacterial cells per one gram of feces, E. coli is given for each of the following compounds.

COMPOUND: CC1(C)S[C@@H]2[C@H](NC(=O)C(N=Cc3cc([N+](=O)[O-])ccc3O)c3ccccc3)C(=O)N2[C@H]1C(=O)O (stereo partly drawn)
VALUE REPORTED: 6.5 logarithmic value; cells per o

Missing value: Logarithmic value of the number of bacterial cells per one gram of feces, E. coli, Escherichia coli, entry `CCOCOC(=O)[C@@H]1N2C(=O)[C@@H](NC(=O)COc3ccccc3)[C@H]2SC1(C)C` . Fill in?
6.4 logarithmic value; cells per o

Another compound: `CC(=O)Nc1ccc(C(=O)NCC(=O)N[C@@H](C(=O)N[C@@H]2C(=O)N3[C@@H]2SC(C)(C)[C@@H]3C(=O)O)c2ccccc2)cc1`
6.4 logarithmic value; cells per o

###

- System: Escherichia coli
- ASSAY INFO: Effect on intestinal bacterial colonies, E. coli count in feces
- Type: in vivo
- COND: female ICR mice, oral 500 mg/kg/day for two days, first day after administration; before administration 6.4
- Description: Effect of the present compounds on the intestinal bacterial colonies was examined. Each of the present compounds was orally administered to mice (one group consisting of five female ICR mice of 6-week-old) for two consecutive days at a dose of 500 mg/kg/day. Before and on the first day after the administration, feces of each mouse was collected and diluted with an anerobic diluent (phosphoric buffer solution) of 100 times volume and ground. […]
Each item that follows carries a reported Logarithmic value of the number of bacterial cells per one gram of feces, E. coli.

COMPOUND: COc1cccc(C=NC(C(=O)N[C@@H]2C(=O)N3[C@@H]2SC(C)(C)[C@@H]3C(=O)O)c2ccccc2)c1O (stereo partly drawn)
VALUE REPORTED: 6.4 logarithmic value; cells per o

COMPOUND: CC(=O)OC[C@H]1OC(OC(=O)[C@@H]2N3C(=O)[C@@H](NC(=O)COc4ccccc4)[C@H]3SC2(C)C)[C@H](OC(C)=O)[C@@H](OC(C)=O)[C@@H]1OC(C)=O (stereo partly drawn)
VALUE REPORTED: 7.2 logarithmic value; cells per o

COMPOUND: CC1(C)S[C@@H]2[C@H](NC(=O)C(N=Cc3cc(Cl)ccc3O)c3ccccc3)C(=O)N2[C@H]1C(=O)O (stereo partly drawn)
VALUE REPORTED: 6.5 logarithmic value; cells per o

COMPOUND: COCOC(=O)[C@@H]1N2C(=O)[C@@H](NC(=O)COc3ccccc3)[C@H]2SC1(C)C
VALUE REPORTED: 6.5 logarithmic value; cells per o

COMPOUND: CC1(C)S[C@@H]2[C@H](NC(=O)C(N=Cc3ccccc3O)c3ccccc3)C(=O)N2[C@H]1C(=O)O (stereo partly drawn)
VALUE REPORTED: 6.4 logarithmic value; cells per o

Kindly consider the entry below.
Report Logarithmic value of the number of bacterial cells per one gram of feces, E. coli for `CC(=O)Nc1ccc(C(=O)N[C@@H](C(=O)N[C@@H]2C(=O)N3[C@@H]2SC(C)(C)[C@@H]3C(=O)O)c2ccccc2)cc1` please.
6.5 logarithmic value; cells per o
